// data source = PubChem BioAssay (NCI)

tested on: SNB-75 CNS; assay: NCI-60 one-dose screen, 48 h; details: 10 µM unless noted
This is part of a sample that, as a whole, favours compounds with a hit. Of some 83,000 tested, about 20% had one in any assay. Active and inactive are the calls of the source. How the source made its calls: active means growth percent below 10; inactive means the rest.
One label from this list, please: 1 for active, -1 for inactive

Query block: Could you please tell me the result logged for "CC[C@]1(O)C[C@@H]2CN(Cc3c([nH]c4ccccc34)[C@@](C(=O)OC)(c3cc4c(cc3OC)N(C)[C@H]3[C@@](O)(C(=O)OC)[C@H](OC(C)=O)[C@]5(CC)[C@@H]6C[C@@H]6CN6CC[C@]43[C@@H]65)C2)C1" in this assay?
Result block: -1

Query block: GET /call?item= "COc1ccccc1OCC(=O)Nc1sc2c(c1C(N)=O)CCC2" returns the recorded outcome of this test.
Result block: -1

Next up:
Query block: I would be grateful if you could indicate the recorded call for "CC(=O)n1cc([C@H]2CC[C@H](c3cn(C(C)=O)c4ccccc34)c3c2[nH]c2ccccc32)c2ccccc21" .
Result block: -1

###

system: MCF7 breast; test: NCI-60 one-dose screen, 48 h (100 = growth as untreated, 0 = no growth, -100 = all killed); conditions: 10 µM unless noted
The panel holds about 83,000 compounds, 20% with a hit somewhere; the sample as a whole holds those more often.
Please provide measured growth for the entries that follow.
Give bare numbers, in %.

Look over these answered cases.
Input "COc1ccc(C(=O)c2cc(OC)c(OC)c(OC)c2)cc1/C=C/C(=O)c1ccc(O)cc1" . Output growth: 12.1

Item: "O=C1Nc2cc(Cl)ccc2/C1=C/c1ccc(N2CCOCC2)s1" | growth: 86.7

Working through the 2 molecules below one at a time, give growth for each.
1. COc1cc(Cn2c(SCC(=O)Nc3ccc(Cl)cc3)nc3ccccc3c2=O)cc(OC)c1OC
2. COc1ccc2c(c1)C(C)Cc1c(N(C)C)ncnc1N2C (stereo not given)

Result block:
[77.2, 19.5]

Data point: "CN1CCN(CCCOc2ccc3nc(Nc4ccc(C(F)(F)F)c(Cl)c4)ccc3c2)CC1" ; growth = -69.5

###

test system: SN12C renal; experiment: NCI-60 one-dose screen, 48 h (100 = growth as untreated, 0 = no growth, -100 = all killed); conditions: 10 µM unless noted
The panel holds about 83,000 compounds, 20% with a hit somewhere; the sample as a whole holds those more often.
Field: class. Source value: growth. Ranges: low class: < 60%; middle class: ≥ 60% and < 90%; high class: ≥ 90%

These solved cases illustrate the format of a correct answer.
Query block: Class label required: "C=C1C(=O)O[C@H]2[C@H]1CC/C(COC(=O)NCCc1ccc(Br)cc1)=C\CC[C@@]1(C)O[C@@H]21"
Result block: low class

Query block: Please let me know in which category the item CC(CCc1ccccc1)NC(=O)c1n[nH]c(=O)c2ccccc12 (stereo not given) belongs.
Result block: high class

Query block: Exercise: read the entry "CN(C)c1ccc(/C=C\N=Nc2ccc(Br)cc2)cc1" and state which class it falls under.
Result block: middle class

New cases:
Query block: Category lookup for the compound Cc1ccc2c(c1)C(C)Cc1c(ncnc1-n1cnc3ccccc31)N2C (stereo not given)
Result block: low class

Query block: Bin? "O=C(CCC(=O)OC1CCCC1)OC1CCCC1"
Result block: high class

Query block: Field: class (growth) — entry: "Nc1c(C(=O)Nc2cccc(Cl)c2Cl)sc2nc3c(cc12)C(=O)CCC3"
Result block: middle class

Query block: Which class holds "Nc1ccccc1C#C/C=C\C#Cc1cccc(O)c1" ?
Result block: middle class
